conditions: in water, 318.15 K
READOUT KIND: solubility (mole fraction)
One number for each entry.

Dear colleague, please send me the reported solubility (mole fraction) for "C[C@H]1[C@H](C)CC[C@]2(C(=O)O[C@@H]3O[C@H](CO[C@@H]4O[C@H](CO)[C@@H](O[C@@H]5O[C@@H](C)[C@H](O)[C@@H](O)[C@H]5O)[C@H](O)[C@H]4O)[C@@H](O)[C@H](O)[C@H]3O)CC[C@]3(C)C(=CC[C@@H]4[C@@]5(C)C[C@@H](O)[C@H](O)[C@@](C)(CO)[C@@H]5CC[C@]43C)[C@H]12" when you can. 4.2e-06

----------
conditions: in n-butanol, 343.15 K
READOUT KIND: solubility (mole fraction)
One number for each entry.

Dear colleague, please send me the reported solubility (mole fraction) for "C[C@H]1[C@H](C)CC[C@]2(C(=O)O[C@@H]3O[C@H](CO[C@@H]4O[C@H](CO)[C@@H](O[C@@H]5O[C@@H](C)[C@H](O)[C@@H](O)[C@H]5O)[C@H](O)[C@H]4O)[C@@H](O)[C@H](O)[C@H]3O)CC[C@]3(C)C(=CC[C@@H]4[C@@]5(C)C[C@@H](O)[C@H](O)[C@@](C)(CO)[C@@H]5CC[C@]43C)[C@H]12" when you can. 0.000175

----------
conditions: in methanol, 313.15 K
READOUT KIND: solubility (mole fraction)
Answers are plain numbers.

Dear colleague, please send me the reported solubility (mole fraction) for "C[C@H]1[C@H](C)CC[C@]2(C(=O)O[C@@H]3O[C@H](CO[C@@H]4O[C@H](CO)[C@@H](O[C@@H]5O[C@@H](C)[C@H](O)[C@@H](O)[C@H]5O)[C@H](O)[C@H]4O)[C@@H](O)[C@H](O)[C@H]3O)CC[C@]3(C)C(=CC[C@@H]4[C@@]5(C)C[C@@H](O)[C@H](O)[C@@](C)(CO)[C@@H]5CC[C@]43C)[C@H]12" when you can. 0.0016

----------
settings: in n-butanol, 323.15 K
READOUT KIND: solubility (mole fraction)
One number for each entry.

Dear colleague, please send me the reported solubility (mole fraction) for "C[C@H]1[C@H](C)CC[C@]2(C(=O)O[C@@H]3O[C@H](CO[C@@H]4O[C@H](CO)[C@@H](O[C@@H]5O[C@@H](C)[C@H](O)[C@@H](O)[C@H]5O)[C@H](O)[C@H]4O)[C@@H](O)[C@H](O)[C@H]3O)CC[C@]3(C)C(=CC[C@@H]4[C@@]5(C)C[C@@H](O)[C@H](O)[C@@](C)(CO)[C@@H]5CC[C@]43C)[C@H]12" when you can. 6.36e-05

----------
conditions: in n-propanol, 303.15 K
READOUT KIND: solubility (mole fraction)
Give bare numbers.

Dear colleague, please send me the reported solubility (mole fraction) for "C[C@H]1[C@H](C)CC[C@]2(C(=O)O[C@@H]3O[C@H](CO[C@@H]4O[C@H](CO)[C@@H](O[C@@H]5O[C@@H](C)[C@H](O)[C@@H](O)[C@H]5O)[C@H](O)[C@H]4O)[C@@H](O)[C@H](O)[C@H]3O)CC[C@]3(C)C(=CC[C@@H]4[C@@]5(C)C[C@@H](O)[C@H](O)[C@@](C)(CO)[C@@H]5CC[C@]43C)[C@H]12" when you can. 6.06e-05

----------
conditions: in methanol, 328.15 K
READOUT KIND: solubility (mole fraction)
Numbers only.

Dear colleague, please send me the reported solubility (mole fraction) for "C[C@H]1[C@H](C)CC[C@]2(C(=O)O[C@@H]3O[C@H](CO[C@@H]4O[C@H](CO)[C@@H](O[C@@H]5O[C@@H](C)[C@H](O)[C@@H](O)[C@H]5O)[C@H](O)[C@H]4O)[C@@H](O)[C@H](O)[C@H]3O)CC[C@]3(C)C(=CC[C@@H]4[C@@]5(C)C[C@@H](O)[C@H](O)[C@@](C)(CO)[C@@H]5CC[C@]43C)[C@H]12" when you can. 0.00253

----------
conditions: in n-propanol, 308.15 K
READOUT KIND: solubility (mole fraction)
Numbers only.

Dear colleague, please send me the reported solubility (mole fraction) for "C[C@H]1[C@H](C)CC[C@]2(C(=O)O[C@@H]3O[C@H](CO[C@@H]4O[C@H](CO)[C@@H](O[C@@H]5O[C@@H](C)[C@H](O)[C@@H](O)[C@H]5O)[C@H](O)[C@H]4O)[C@@H](O)[C@H](O)[C@H]3O)CC[C@]3(C)C(=CC[C@@H]4[C@@]5(C)C[C@@H](O)[C@H](O)[C@@](C)(CO)[C@@H]5CC[C@]43C)[C@H]12" when you can. 6.78e-05

----------
settings: in water, 298.15 K
READOUT KIND: solubility (mole fraction)
Answers are plain numbers.

Dear colleague, please send me the reported solubility (mole fraction) for "C[C@H]1[C@H](C)CC[C@]2(C(=O)O[C@@H]3O[C@H](CO[C@@H]4O[C@H](CO)[C@@H](O[C@@H]5O[C@@H](C)[C@H](O)[C@@H](O)[C@H]5O)[C@H](O)[C@H]4O)[C@@H](O)[C@H](O)[C@H]3O)CC[C@]3(C)C(=CC[C@@H]4[C@@]5(C)C[C@@H](O)[C@H](O)[C@@](C)(CO)[C@@H]5CC[C@]43C)[C@H]12" when you can. 1.9e-06

----------
conditions: in n-butanol, 338.15 K
READOUT KIND: solubility (mole fraction)
Numbers only.

Dear colleague, please send me the reported solubility (mole fraction) for "C[C@H]1[C@H](C)CC[C@]2(C(=O)O[C@@H]3O[C@H](CO[C@@H]4O[C@H](CO)[C@@H](O[C@@H]5O[C@@H](C)[C@H](O)[C@@H](O)[C@H]5O)[C@H](O)[C@H]4O)[C@@H](O)[C@H](O)[C@H]3O)CC[C@]3(C)C(=CC[C@@H]4[C@@]5(C)C[C@@H](O)[C@H](O)[C@@](C)(CO)[C@@H]5CC[C@]43C)[C@H]12" when you can. 0.000132

----------
details: in n-propanol, 318.15 K
READOUT KIND: solubility (mole fraction)
One number for each entry.

Dear colleague, please send me the reported solubility (mole fraction) for "C[C@H]1[C@H](C)CC[C@]2(C(=O)O[C@@H]3O[C@H](CO[C@@H]4O[C@H](CO)[C@@H](O[C@@H]5O[C@@H](C)[C@H](O)[C@@H](O)[C@H]5O)[C@H](O)[C@H]4O)[C@@H](O)[C@H](O)[C@H]3O)CC[C@]3(C)C(=CC[C@@H]4[C@@]5(C)C[C@@H](O)[C@H](O)[C@@](C)(CO)[C@@H]5CC[C@]43C)[C@H]12" when you can. 9.61e-05

----------
conditions: in n-butanol, 313.15 K
READOUT KIND: solubility (mole fraction)
Numbers only.

Dear colleague, please send me the reported solubility (mole fraction) for "C[C@H]1[C@H](C)CC[C@]2(C(=O)O[C@@H]3O[C@H](CO[C@@H]4O[C@H](CO)[C@@H](O[C@@H]5O[C@@H](C)[C@H](O)[C@@H](O)[C@H]5O)[C@H](O)[C@H]4O)[C@@H](O)[C@H](O)[C@H]3O)CC[C@]3(C)C(=CC[C@@H]4[C@@]5(C)C[C@@H](O)[C@H](O)[C@@](C)(CO)[C@@H]5CC[C@]43C)[C@H]12" when you can. 4.22e-05

----------
details: in ethanol, 303.15 K
READOUT KIND: solubility (mole fraction)
One number for each entry.

Dear colleague, please send me the reported solubility (mole fraction) for "C[C@H]1[C@H](C)CC[C@]2(C(=O)O[C@@H]3O[C@H](CO[C@@H]4O[C@H](CO)[C@@H](O[C@@H]5O[C@@H](C)[C@H](O)[C@@H](O)[C@H]5O)[C@H](O)[C@H]4O)[C@@H](O)[C@H](O)[C@H]3O)CC[C@]3(C)C(=CC[C@@H]4[C@@]5(C)C[C@@H](O)[C@H](O)[C@@](C)(CO)[C@@H]5CC[C@]43C)[C@H]12" when you can. 0.000142

----------
conditions: in water, 308.15 K
READOUT KIND: solubility (mole fraction)
Numbers only.

Dear colleague, please send me the reported solubility (mole fraction) for "C[C@H]1[C@H](C)CC[C@]2(C(=O)O[C@@H]3O[C@H](CO[C@@H]4O[C@H](CO)[C@@H](O[C@@H]5O[C@@H](C)[C@H](O)[C@@H](O)[C@H]5O)[C@H](O)[C@H]4O)[C@@H](O)[C@H](O)[C@H]3O)CC[C@]3(C)C(=CC[C@@H]4[C@@]5(C)C[C@@H](O)[C@H](O)[C@@](C)(CO)[C@@H]5CC[C@]43C)[C@H]12" when you can. 2.5e-06

----------
conditions: in n-propanol, 333.15 K
READOUT KIND: solubility (mole fraction)

Dear colleague, please send me the reported solubility (mole fraction) for "C[C@H]1[C@H](C)CC[C@]2(C(=O)O[C@@H]3O[C@H](CO[C@@H]4O[C@H](CO)[C@@H](O[C@@H]5O[C@@H](C)[C@H](O)[C@@H](O)[C@H]5O)[C@H](O)[C@H]4O)[C@@H](O)[C@H](O)[C@H]3O)CC[C@]3(C)C(=CC[C@@H]4[C@@]5(C)C[C@@H](O)[C@H](O)[C@@](C)(CO)[C@@H]5CC[C@]43C)[C@H]12" when you can. 0.000181
